Listing of entries alongside the reported IC50.
biological target: PSMA-expressing C4-2 cells (Homo sapiens); construct: PSMA-expressing C4-2 cells (ATCC, Cat. No. CRL-3314) were cultured in RPMI-1640; host or cells: C4-2 cells; assay: FACS binding assay (competition with 50 nM PSM-0183); conditions: pIC50 category of FACS binding, C4-2 cells; read-out: pIC50 [C4-2] CAT (converted)
Numbered stars: 1 amine (or outer) side, 2 acyl side, 3 side chain; on linkers, the order of the positions; unused ones are H or OH. Bridge positions count the residues as written; N and C are the ends. Square brackets hold non-standard residues; d marks the D form. Peptide text beside a SMILES is read from it. * marks the point of attachment. DOTA = O=C(O)CN1CCN(CC(=O)O)CCN(CC(=O)*)CCN(CC(=O)O)CC1; Phe(3-Cl) = N[C@@H](Cc1cccc(Cl)c1)C(=O)O; Phe(4-Cl) = N[C@@H](Cc1ccc(Cl)cc1)C(=O)O; X1 = O=C(CC1CCN([*:1])CC1)[*:2]; Aad = N[C@@H](CCCC(=O)O)C(=O)O; Tle = CC(C)(C)[C@H](N)C(=O)O; Aib = CC(C)(N)C(=O)O; CO = O=C([*:1])[*:2]; NHBu = CCCCN*

- COMPOUND: "CCCCNC(=O)N[C@H](C(=O)NC(C)(C)C(=O)N[C@@H](Cc1cccc(Cl)c1)C(=O)N[C@H]1CSSC[C@@H](C(=O)N[C@H](C(=O)N[C@H](C(=O)N2CCC(CC(=O)N[C@H](CCCCNC(=O)CN3CCN(CC(=O)O)CCN(CC(=O)O)CCN(CC(=O)O)CC3)C(N)=O)CC2)[C@@H](C)O)C(C)(C)C)NC(=O)[C@H](CC(N)=O)NC(=O)C(C)(C)NC(=O)[C@H](CCCNC(=N)N)NC(=O)[C@H](CCCCN)NC1=O)[C@@H](C)O [PSM-0470] ({NHBu-CO}-T[Aib][Phe(3-Cl)]CKR[Aib]NC[Tle]T[X1][dK](DOTA)-NH2; disulfide 4-9)"
  IC50: "< 200 nM"

Recorded IC50 of C[C@@H](O)[C@H](NC(=O)[C@@H](NC(=O)[C@@H]1CSSC[C@H](NC(=O)[C@H](Cc2ccc(Cl)cc2)NC(=O)C(C)(C)NC(=O)[C@@H](NC(=O)CC2CCN(C(=O)CN3CCN(CC(=O)O)CCN(CC(=O)O)CCN(CC(=O)O)CC3)CC2)[C@@H](C)O)C(=O)N[C@@H](CCCCN)C(=O)N[C@@H](CCCC(N)=O)C(=O)NC(C)(C)C(=O)N[C@@H](CC(N)=O)C(=O)N1)C(C)(C)C)C(N)=O [PSM-0531] ({DOTA}-[X1]T[Aib][Phe(4-Cl)]CK[Aad](NH2)[Aib]NC[Tle]T-NH2; disulfide 5-10) , please. < 200 nM

---

Listing of entries alongside the reported IC50.
target: PSMA-expressing C4-2 cells (Homo sapiens, UniProt Q04609); construct: PSMA-expressing C4-2 cells (ATCC, Cat. No. CRL-3314) were cultured in RPMI-1640; host or cells: C4-2 cells; test: FACS binding assay (competition with 50 nM PSM-0183); conditions: pIC50 category of FACS binding, C4-2 cells; read-out: pIC50 [C4-2] CAT (converted)
Sequence (Q04609 whole entry): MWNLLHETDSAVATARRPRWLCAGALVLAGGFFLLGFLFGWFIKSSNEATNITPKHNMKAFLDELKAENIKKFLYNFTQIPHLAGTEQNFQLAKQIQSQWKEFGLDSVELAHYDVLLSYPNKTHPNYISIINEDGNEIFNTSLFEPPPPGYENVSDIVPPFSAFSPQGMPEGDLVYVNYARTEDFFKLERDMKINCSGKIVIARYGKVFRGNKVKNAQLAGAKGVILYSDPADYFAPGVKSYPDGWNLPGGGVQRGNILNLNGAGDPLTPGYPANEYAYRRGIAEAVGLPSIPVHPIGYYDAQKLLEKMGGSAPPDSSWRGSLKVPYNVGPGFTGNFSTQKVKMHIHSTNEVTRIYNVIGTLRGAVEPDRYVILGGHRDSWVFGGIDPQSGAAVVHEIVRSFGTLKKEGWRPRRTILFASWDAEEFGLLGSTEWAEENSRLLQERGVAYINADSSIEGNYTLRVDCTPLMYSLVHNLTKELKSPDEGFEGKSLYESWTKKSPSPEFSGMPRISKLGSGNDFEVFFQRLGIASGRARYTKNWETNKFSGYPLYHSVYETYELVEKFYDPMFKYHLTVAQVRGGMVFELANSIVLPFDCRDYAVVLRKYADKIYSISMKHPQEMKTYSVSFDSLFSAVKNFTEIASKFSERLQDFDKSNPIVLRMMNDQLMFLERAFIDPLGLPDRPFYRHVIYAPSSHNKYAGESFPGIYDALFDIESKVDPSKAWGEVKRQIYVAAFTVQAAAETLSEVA
Bridge positions count the residues as written; N and C are the ends. Square brackets hold non-standard residues; d marks the D form. Peptide text beside a SMILES is read from it. * marks the point of attachment. DOTA = O=C(O)CN1CCN(CC(=O)O)CCN(CC(=O)*)CCN(CC(=O)O)CC1; Tle = CC(C)(C)[C@H](N)C(=O)O; Isovaleryl = CC(C)CC(=O)*; Aib = CC(C)(N)C(=O)O

- COMPOUND: "CC(=O)N[C@H](C(=O)NC(C)(C)C(=O)N[C@@H](Cc1ccccc1)C(=O)N[C@H]1CSSC[C@@H](C(=O)N[C@H](C(=O)N[C@H](C(N)=O)[C@@H](C)O)C(C)(C)C)NC(=O)[C@H](CC(N)=O)NC(=O)[C@H](CCCCNC(=O)CN2CCN(CC(=O)O)CCN(CC(=O)O)CCN(CC(=O)O)CC2)NC(=O)[C@H](CCC(N)=O)NC(=O)[C@H](CCCCN)NC1=O)[C@@H](C)O [PSM-0385] (Ac-T[Aib]FCKQK(DOTA)NC[Tle]T-NH2; disulfide 4-9)"
  METRIC_NAME: "IC50"
  DATA_VALUE: "200 to 1260 nM"

What measured IC50 is associated with CC(C)CC(=O)NC(C)(C)C(=O)N[C@@H](Cc1ccccc1)C(=O)N[C@H]1CSSC[C@@H](C(=O)N[C@H](C(=O)N[C@H](C(N)=O)[C@@H](C)O)C(C)(C)C)NC(=O)[C@H](CC(N)=O)NC(=O)C(C)(C)NC(=O)[C@H](CCCNC(=N)N)NC(=O)[C@H](CCCCN)NC1=O [PSM-0450] (Isovaleryl-[Aib]FCKR[Aib]NC[Tle]T-NH2; disulfide 3-8) on PSMA-expressing C4-2 cells (Homo sapiens, UniProt Q04609)? < 200 nM
